- tested.target: hPXR (Homo sapiens (Human))
- Sequence (O75469 whole entry): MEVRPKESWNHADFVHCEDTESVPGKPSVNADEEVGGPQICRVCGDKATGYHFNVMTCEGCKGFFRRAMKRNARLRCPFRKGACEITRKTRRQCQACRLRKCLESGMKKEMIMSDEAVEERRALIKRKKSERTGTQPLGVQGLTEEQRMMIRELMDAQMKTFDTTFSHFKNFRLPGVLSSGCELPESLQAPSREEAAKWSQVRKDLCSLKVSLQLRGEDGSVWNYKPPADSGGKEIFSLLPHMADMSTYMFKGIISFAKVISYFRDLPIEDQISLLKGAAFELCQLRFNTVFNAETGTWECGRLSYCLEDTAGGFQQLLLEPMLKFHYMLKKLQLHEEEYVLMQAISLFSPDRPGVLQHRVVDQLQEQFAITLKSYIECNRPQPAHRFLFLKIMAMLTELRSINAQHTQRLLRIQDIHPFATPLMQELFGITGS
- method.notes: cell-based hPXR antagonistic assay
- assay.context: read-out: Antagonist (IC50/μM); cell-based hPXR antagonistic assay with rifampicin (5 μM)
observed.property: IC50 (µM)

INSERT INTO assay_data (compound, observed_property, uom, value_observed) VALUES
  ('COc1ccc(OC)c(-n2nnc(C(=O)Nc3cc(N(C)C)cc(C(C)(C)C)c3)c2C)c1', 'IC50', 'µM', 0.34);

a. CNc1cc(NC(=O)c2nnn(-c3cc(OC)ccc3OC)c2C)cc(C(C)(C)C)c1 [D2]
b. CCCCN(CCCC)c1cc(NC(=O)c2nnn(-c3cc(OC)ccc3OC)c2C)cc(C(C)(C)C)c1
c. CCCCNc1cc(NC(=O)c2nnn(-c3cc(OC)ccc3OC)c2C)cc(C(C)(C)C)c1
INPUT: Sequence the entries by IC50, beginning with the highest number. Reply with the item labels sorted in the order that was asked for.
OUTPUT: b, a, c
